biological target: HIV-1 Env of isolate MGRM-F1-004 (subtype F) (HIV-1); test: cell-based or functional assay
REPORTED PROPERTY: IC50 (neutralization) (µg/mL)
Write the number in µg/mL without appending the unit.

[
  {
    "BINDER": "PGT-137 (antibody, V domains shown) VH: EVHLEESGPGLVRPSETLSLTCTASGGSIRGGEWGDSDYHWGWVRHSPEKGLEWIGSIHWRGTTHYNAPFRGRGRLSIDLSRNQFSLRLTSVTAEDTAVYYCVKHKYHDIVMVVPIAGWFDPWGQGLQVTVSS VL: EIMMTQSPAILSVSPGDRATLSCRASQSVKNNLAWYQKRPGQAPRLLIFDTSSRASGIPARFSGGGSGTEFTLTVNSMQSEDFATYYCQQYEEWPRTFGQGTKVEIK",
    "QUANTITATIVE READOUT": 40.3
  },
  {
    "BINDER": "PGT-130 (antibody, V domains shown) VH: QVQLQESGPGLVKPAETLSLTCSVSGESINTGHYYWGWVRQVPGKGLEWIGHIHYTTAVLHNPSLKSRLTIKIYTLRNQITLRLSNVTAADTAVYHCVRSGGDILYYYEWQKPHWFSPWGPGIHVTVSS VL: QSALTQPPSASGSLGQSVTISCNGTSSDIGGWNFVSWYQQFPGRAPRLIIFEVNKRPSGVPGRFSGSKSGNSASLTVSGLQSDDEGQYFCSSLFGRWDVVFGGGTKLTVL",
    "QUANTITATIVE READOUT": 0.023
  },
  {
    "BINDER": "PGT-135 (antibody, V domains shown) VH: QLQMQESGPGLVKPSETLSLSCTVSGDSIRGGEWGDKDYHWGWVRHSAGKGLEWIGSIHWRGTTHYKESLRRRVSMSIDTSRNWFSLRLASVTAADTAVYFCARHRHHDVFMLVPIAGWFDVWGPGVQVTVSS VL: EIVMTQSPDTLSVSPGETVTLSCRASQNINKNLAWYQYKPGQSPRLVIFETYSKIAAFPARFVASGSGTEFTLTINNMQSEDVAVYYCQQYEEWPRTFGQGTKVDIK",
    "QUANTITATIVE READOUT": 0.211
  }
]

--- query ---
Quick one: IC50 (neutralization) for PGT-123 (antibody, V domains shown) VH: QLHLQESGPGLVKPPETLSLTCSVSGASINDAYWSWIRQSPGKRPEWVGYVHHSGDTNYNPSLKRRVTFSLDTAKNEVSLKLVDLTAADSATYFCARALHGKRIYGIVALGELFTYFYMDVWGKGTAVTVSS VL: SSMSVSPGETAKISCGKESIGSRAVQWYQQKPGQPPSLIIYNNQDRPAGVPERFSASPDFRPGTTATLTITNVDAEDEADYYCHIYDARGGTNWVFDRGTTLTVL ?
1.78

Attribution: patent US20160264649A1
